Please go through the items and note down their TGI.
# System: EKVX NSCLC
# procedureText: NCI tumour cell line growth inhibition, 48 h

Query block: # get_value(readout='TGI', item= CC(C)(C)n1c(=O)[nH]c(=O)n1C(C)(C)C )
Result block: > 100 µM

Query block: # get_value(readout='TGI', item= COc1ccc(-c2oc3cc(O)cc(O)c3c(=O)c2OC)cc1 )
Result block: > 100 µM

Query block: # get_value(readout='TGI', item= O=P1(S)OC[C@H]2O[C@@H]3[C@H](F)[C@@H]2OP(O)(=S)OC[C@H]2O[C@H]([C@H](F)[C@@H]2O1)n1cnc2c(ncnc21)NC/C=C/CNc1ncnc2c1ncn23 (stereo partly drawn) )
Result block: > 100 µM

Query block: # get_value(readout='TGI', item= COC(=O)C1C(O)C(C)C(O)C(C)C=C(C)C2=C3C(=C(C)C(=O)c4c(O)c(c(C)c(OC(C)=O)c43)NC(=O)C(C)=C/C=C\C(C)C(O)C(C)C1O)OCO2 (stereo not drawn) )
Result block: > 100 µM

Query block: # get_value(readout='TGI', item= O=C(NCCc1ccccn1)OCc1nc2nc(Cl)nc(N3CCOCC3)c2[nH]1 )
Result block: 11.3 µM

Query block: # get_value(readout='TGI', item= COc1cc2c(cc1O)CC1c3c(cc(O)c(OC)c3-2)CCN1C (stereo not drawn) )
Result block: > 100 µM

Query block: # get_value(readout='TGI', item= O=C1/C(=C/c2ccccc2)CN(C(=O)CCN2CCCC2)C/C1=C\c1ccccc1 )
Result block: 7.15 µM

Query block: # get_value(readout='TGI', item= C=C(C)[C@H]1C2=CC(C)=C(O2)[C@@H](O[C@@H]2c3oc(cc3C)[C@H](C(=C)C)[C@H]3C=C(CC[C@H]2C(=C)C)C(=O)O3)[C@H](C(=C)C)CCC2=C[C@H]1OC2=O )
Result block: > 100 µM

----------
# System: UO-31 renal
# procedureText: NCI tumour cell line growth inhibition, 48 h
Please go through the items and note down their TGI.

Query block: # get_value(readout='TGI', item= CC(=O)O[C@]1(C)OC(=O)[C@@H](CC(C)C)N1[N+](=O)[O-] )
Result block: > 100 µM

Query block: # get_value(readout='TGI', item= Cc1nn2c(/C=C3/C(=O)Nc4cc(Cl)ccc43)c(-c3ccccc3)nc2s1 )
Result block: 3.53 µM

Query block: # get_value(readout='TGI', item= C=CC(=O)Nc1cc(N2CCN(CC)CC2)ccc1Nc1cc(N(C)C(=O)Nc2c(Cl)c(OC)cc(OC)c2Cl)ncn1 )
Result block: 22.2 µM

Query block: # get_value(readout='TGI', item= Cc1c(NC(=S)NC(=O)c2ccc([N+](=O)[O-])cc2)c(=O)n(-c2ccccc2)n1C )
Result block: > 100 µM

Query block: # get_value(readout='TGI', item= O=S(=O)(NCn1ccc2ccccc21)c1ccccc1 )
Result block: > 100 µM

Query block: # get_value(readout='TGI', item= Cc1cc(C)c2c(c1)C(=O)/C(=C/c1ccccc1C(=O)O)C2 )
Result block: > 100 µM

Query block: # get_value(readout='TGI', item= O=c1oc(C(C(F)(F)F)C(F)(F)F)nc2ccccc12 )
Result block: > 100 µM

Query block: # get_value(readout='TGI', item= OCc1ccc(-c2cscc2-c2ccc(CO)o2)o1 )
Result block: > 100 µM

Query block: # get_value(readout='TGI', item= Cc1nc(Nc2cccnc2)sc1C(=O)/C=C/c1ccc(Cl)cc1 )
Result block: 4.61 µM

Query block: # get_value(readout='TGI', item= Cc1nn(-c2ccccc2)c(C)c1/C=N/N=C1\S/C(=C\c2ccc(Cl)cc2)C(=O)N1c1ccccc1 )
Result block: > 100 µM

Query block: # get_value(readout='TGI', item= O=C(c1ccccc1)c1c(NCC(O)CN2CCOCC2)n(Cc2ccccc2)c(=O)n(Cc2ccccc2)c1=O (centres undefined) )
Result block: > 100 µM

Query block: # get_value(readout='TGI', item= Cc1ccc(S(=O)(=O)Nc2nnc(S(N)(=O)=O)s2)cc1 )
Result block: > 100 µM

Query block: # get_value(readout='TGI', item= O=C1c2c(O)cccc2-c2nn(CCNCCO)c3ccc(NCCNCCO)c1c23 )
Result block: 10.2 µM

Query block: # get_value(readout='TGI', item= O=C1OC[C@H]2[C@@H]1[C@H]1O[C@@H]2C2=C(CCC2)C1=O )
Result block: > 100 µM

Query block: # get_value(readout='TGI', item= COc1ccc(Nc2ccc3ccccc3c2-c2c(O)ccc3ccccc23)cc1 )
Result block: 26.4 µM

Query block: # get_value(readout='TGI', item= CC1(C)CC(=O)C2(CC(CSc3ccccc3)C(CS(=O)(=O)c3ccccc3)C2)C(=O)C1 (centres undefined) )
Result block: > 100 µM

Query block: # get_value(readout='TGI', item= c1ccc(/C(=N/Nc2ccncn2)c2ccccn2)cc1 )
Result block: 67.3 µM

Query block: # get_value(readout='TGI', item= C=C(C)CC1(O[Si](C)(C)C)C(=O)C(OCC)=C1OCC (centres undefined) )
Result block: > 100 µM

Query block: # get_value(readout='TGI', item= Cn1cc(C2=C(c3cn(C)c4ccc(Cl)cc34)C(=O)NC2=O)c2ccccc21 )
Result block: 11.7 µM

Query block: # get_value(readout='TGI', item= CCOP(=O)(O)CN1CCNCCN(CP(=O)(O)OCC)CCNCC1 )
Result block: > 100 µM

Query block: # get_value(readout='TGI', item= CC(Oc1ccccc1Cl)C(=O)NN1C(=O)CSC1c1ccccc1 (centres undefined) )
Result block: > 100 µM

Query block: # get_value(readout='TGI', item= CCOC(=O)CCn1ncc(Cl)c(Cl)c1=O )
Result block: 29.3 µM

Query block: # get_value(readout='TGI', item= CC(C)C(C/C=C1\CC(CO)(COC(=O)C2CCCCC2)OC1=O)C(C)C (centres undefined) )
Result block: 32.1 µM

Query block: # get_value(readout='TGI', item= CC(C)(C)n1c(=O)[nH]c(=O)n1C(C)(C)C )
Result block: > 100 µM

----------
Please go through the items and note down their TGI.
# Tested on: SW-620 colon
# procedureText: NCI tumour cell line growth inhibition, 48 h

Query block: # get_value(readout='TGI', item= COc1ccc(C(=O)C(CC2C(=O)NC(=O)NC2=O)c2ccc(OC)cc2)cc1 (stereo unspecified) )
Result block: > 100 µM

Query block: # get_value(readout='TGI', item= Cc1ccc(N=Nc2c(O)ccc3ccccc23)cc1 )
Result block: > 100 µM

Query block: # get_value(readout='TGI', item= CN(C)CCCNc1ccc2nnn3c4ccc(O)cc4c(=O)c1c23 )
Result block: 17.2 µM

Query block: # get_value(readout='TGI', item= CC(C)=CCNc1nc(Cl)nc2nc[nH]c12 )
Result block: > 100 µM

Query block: # get_value(readout='TGI', item= CC(=O)Nc1ccc(OC/C(N)=N/NC(=O)c2ccncc2)cc1 )
Result block: > 100 µM

Query block: # get_value(readout='TGI', item= O=C1OC[C@H]2[C@@H]1[C@H]1O[C@@H]2C2=C(CCC2)C1=O )
Result block: > 100 µM

Query block: # get_value(readout='TGI', item= COc1cccc(N[C@@H]2c3cc4c(cc3C(c3cc(OC)c(O)c(OC)c3)[C@H]3C(=O)OCC32)OCO4)c1 (stereo partly specified) )
Result block: > 43.2 µM

Query block: # get_value(readout='TGI', item= CN(C)CCSS(=O)(=O)O )
Result block: > 100 µM

Query block: # get_value(readout='TGI', item= CC(C)(C)CC(C)(C)c1cc(O)c(O)c(CN2CCCCC2)c1 )
Result block: 28 µM

Query block: # get_value(readout='TGI', item= S=c1nc(N/N=C/c2ccco2)c2cn[nH]c2[nH]1 )
Result block: > 100 µM

Query block: # get_value(readout='TGI', item= N/N=C1\C(=O)N(c2ccc(Cl)cc2Cl)C(=O)C(=O)C1c1nc2ccccc2o1 (stereo unspecified) )
Result block: > 100 µM

----------
Please go through the items and note down their TGI.
# Tested on: SNB-19 CNS
# procedureText: NCI tumour cell line growth inhibition, 48 h

Query block: # get_value(readout='TGI', item= CN(C)c1nc2ccccc2c2c1c1c(n2Cc2ccccc2)-c2ccccc2C1=O )
Result block: > 100 µM

Query block: # get_value(readout='TGI', item= N/N=C1\C(=O)N(c2ccc(Cl)cc2Cl)C(=O)C(=O)C1c1nc2ccccc2o1 (stereo not given) )
Result block: > 100 µM

Query block: # get_value(readout='TGI', item= CCCSc1ccc2[nH]c(N3C(=O)/C(=C/c4ccccc4)N=C3c3ccccc3)cc2c1 )
Result block: > 50 µM

Query block: # get_value(readout='TGI', item= CN(C)/N=N/c1nc2c(c(=O)n(C)c(=O)n2C)n1CC(O)CO (stereo not given) )
Result block: > 100 µM

Query block: # get_value(readout='TGI', item= CC(=O)[O-].[Mn+3].[O-]c1ccccc1C=NCCNCCN=Cc1ccccc1[O-] )
Result block: > 100 µM

Value source: PubChem BioAssay (NCI)
